- Tested on: pig TRPM8 (Sus scrofa, UniProt F1SM15)
- Construct: expressed in transfected cells; host or cells: CHO (pcDNA5/FRT/TO vector; hygromycin B and blasticidin selection)
- Sequence (F1SM15 1-1104): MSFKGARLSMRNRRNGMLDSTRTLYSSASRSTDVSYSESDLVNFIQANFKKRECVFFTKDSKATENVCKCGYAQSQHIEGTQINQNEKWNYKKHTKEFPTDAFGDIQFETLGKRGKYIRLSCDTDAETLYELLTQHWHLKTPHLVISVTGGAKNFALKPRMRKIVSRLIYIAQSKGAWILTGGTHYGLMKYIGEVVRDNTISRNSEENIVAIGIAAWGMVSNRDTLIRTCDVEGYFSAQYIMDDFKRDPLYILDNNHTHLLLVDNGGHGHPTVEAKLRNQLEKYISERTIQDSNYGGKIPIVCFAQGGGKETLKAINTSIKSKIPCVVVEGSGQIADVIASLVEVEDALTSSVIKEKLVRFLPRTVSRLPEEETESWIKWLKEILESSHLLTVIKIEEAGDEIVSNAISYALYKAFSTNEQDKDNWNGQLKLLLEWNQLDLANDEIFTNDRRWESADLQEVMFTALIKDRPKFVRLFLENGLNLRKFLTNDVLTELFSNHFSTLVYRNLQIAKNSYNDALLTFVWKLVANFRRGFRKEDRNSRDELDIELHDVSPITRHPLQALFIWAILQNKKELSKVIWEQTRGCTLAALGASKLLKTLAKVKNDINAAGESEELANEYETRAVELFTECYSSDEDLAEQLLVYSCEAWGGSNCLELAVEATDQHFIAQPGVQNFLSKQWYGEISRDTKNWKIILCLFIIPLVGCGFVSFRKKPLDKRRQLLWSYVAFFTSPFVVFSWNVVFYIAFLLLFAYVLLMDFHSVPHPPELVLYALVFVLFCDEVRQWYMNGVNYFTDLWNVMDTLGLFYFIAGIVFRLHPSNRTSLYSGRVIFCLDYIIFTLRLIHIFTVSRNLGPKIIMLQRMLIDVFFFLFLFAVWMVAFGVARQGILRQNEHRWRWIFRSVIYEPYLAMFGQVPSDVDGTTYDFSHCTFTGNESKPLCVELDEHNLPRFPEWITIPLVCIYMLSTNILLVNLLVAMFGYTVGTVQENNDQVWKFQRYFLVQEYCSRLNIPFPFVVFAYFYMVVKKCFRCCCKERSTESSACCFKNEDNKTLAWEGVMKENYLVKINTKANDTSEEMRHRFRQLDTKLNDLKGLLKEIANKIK
- Assay notes: In vitro pig TRPM8 fluorescence calcium flux assay (recombinant CHO cells, Fluo4-AM, FDSS6000)
- Assay type: cell-based
- Recorded conditions: recombinant CHO cells expressing pig TRPM8; menthol-related EC50, normalized to 100 μM menthol
Observation type: EC50 (nM)

In [3]: df
Out[3]:
                                   compound  assay_result
0  CC(C)[C@@H]1CC[C@@H](C)C[C@@]1(O)C(=O)NC[C@@H](NC(=O)[C@@H](C)N)c1ccccc1 [Example 62]           2.3
1  CC(C)[C@@H]1CC[C@@H](C)C[C@@]1(O)C(=O)NC(CCO)c1cccc(O)c1 (stereo partly shown) [Example 163]           940
2  CC(C)[C@@H]1CC[C@@H](C)C[C@@]1(O)C(=O)NCC(F)c1ccccc1 (stereo partly shown) [Example 5]           0.7
3  CC(C)[C@@H]1CC[C@@H](C)C[C@@]1(O)C(=O)NCCc1ccccc1OCC(O)CO (stereo partly shown) [Example 9]           6.3
